biological target: L858R/T790M/C797S EGFR (Homo sapiens, UniProt P00533, C797S/L858R/T790M); construct: expressed in transfected cells; host or cells: H1975 clone #25 (lentiviral over-expression, endogenous EGFR knocked out by sgRNA); experiment: EGFR degradation HTRF assay in H1975-clone #25 (LTC) cells; assay type: cell-based; conditions: H1975 # 25-LTC (L858R/T790M/C797S), 16h treatment, HTRF
Sequence (P00533 25-1210 T790M/C797S/L858R): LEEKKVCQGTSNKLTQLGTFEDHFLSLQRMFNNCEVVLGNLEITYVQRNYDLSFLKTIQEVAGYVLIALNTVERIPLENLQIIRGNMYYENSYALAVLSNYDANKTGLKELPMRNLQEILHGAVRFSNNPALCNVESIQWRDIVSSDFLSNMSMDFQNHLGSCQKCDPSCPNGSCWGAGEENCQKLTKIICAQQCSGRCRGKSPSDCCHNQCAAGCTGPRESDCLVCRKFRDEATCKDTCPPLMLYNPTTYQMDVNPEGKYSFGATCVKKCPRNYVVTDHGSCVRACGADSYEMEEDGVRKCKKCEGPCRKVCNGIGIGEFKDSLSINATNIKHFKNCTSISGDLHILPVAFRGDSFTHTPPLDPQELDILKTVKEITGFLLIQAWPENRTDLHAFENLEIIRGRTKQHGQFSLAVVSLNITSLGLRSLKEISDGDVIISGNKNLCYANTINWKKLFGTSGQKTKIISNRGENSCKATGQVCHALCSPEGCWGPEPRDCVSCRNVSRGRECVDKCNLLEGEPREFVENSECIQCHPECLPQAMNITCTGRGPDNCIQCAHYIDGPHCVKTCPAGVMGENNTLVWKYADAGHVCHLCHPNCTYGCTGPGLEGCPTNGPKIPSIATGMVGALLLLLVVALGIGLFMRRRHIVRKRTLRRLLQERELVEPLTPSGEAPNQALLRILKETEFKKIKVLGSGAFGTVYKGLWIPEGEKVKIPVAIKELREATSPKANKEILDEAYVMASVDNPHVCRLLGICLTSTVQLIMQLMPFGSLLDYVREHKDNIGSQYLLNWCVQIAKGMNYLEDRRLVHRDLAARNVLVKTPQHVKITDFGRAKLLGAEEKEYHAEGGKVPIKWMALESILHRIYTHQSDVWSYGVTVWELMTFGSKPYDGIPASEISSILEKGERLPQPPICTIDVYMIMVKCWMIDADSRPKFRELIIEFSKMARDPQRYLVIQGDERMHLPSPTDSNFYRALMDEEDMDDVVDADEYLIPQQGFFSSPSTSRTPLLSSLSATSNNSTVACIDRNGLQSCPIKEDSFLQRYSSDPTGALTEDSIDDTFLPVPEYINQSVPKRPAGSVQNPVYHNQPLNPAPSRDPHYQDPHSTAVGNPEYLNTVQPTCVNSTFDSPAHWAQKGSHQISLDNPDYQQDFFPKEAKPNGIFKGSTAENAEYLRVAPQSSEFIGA
VALUE_TYPE: DC50

Cc1cc2cc(n1)-c1cnn(C)c1OCCC[C@@H](C)CN1/C(=N/C2=O)Nc2ccc(C(=O)N3CCC(C4CN(CCc5cc(F)c([C@H]6CCC(=O)NC6=O)c(F)c5)C4)CC3)cc21 [Example 312] ... 0.906 nM

// query Recorded DC50 of Cc1cc2cc(n1)-c1cnn(C)c1OCCC[C@@H](C)CN1/C(=N/C2=O)Nc2ccc(C(=O)N[C@H]3CCN(CCc4cc(F)c([C@H]5CCC(=O)NC5=O)c(F)c4)C[C@@H]3F)cc21 [Example 342] , please.
// result 0.62 nM

// query What value of measured DC50 is listed for Cc1cc2cc(n1)-c1cnn(C)c1OCCC[C@@H](C)CN1/C(=N/C2=O)Nc2ccc(N3CC[C@H](C(=O)N4CCN(c5cc(F)c([C@H]6CCC(=O)NC6=O)c(F)c5)CC4)C3)cc21 [Example 358] ?
// result 0.622 nM
